Biological target: Cytochrome P450 2D6 (Homo sapiens)
Assay: Cytochrome P450 family 2 subfamily D member 6 (CYP2D6) small molecule antagonists: luciferase biochemical (cell-free) qHTS assay (AID 1645840); also: nearly all actives have a fitted effect of over 55% in size
Settings: P450-Glo CYP2D6 enzyme, luciferin luminescence, 1 h; series mostly up to 57.4 µM
Results filed as inconclusive are left out. The source made the active and inactive calls. Calls follow the shape of the dose curve; as a rule, active = well fitted inhibition curve with a large enough effect in the repeat runs; inconclusive = weak or mixed curves; inactive = flat fitted curve, though single readings scatter.
In this exercise, the only acceptable responses are yes (1) = active, no (0) = inactive

Cc1cc(C(C)Nc2ccccc2)c2nc(N3CCOCC3)cc(=O)n2c1 (centres undefined)	no (0)
CN(C)CCOc1cc(-c2cn[nH]c2)ccc1NC(=O)C1COc2ccccc2O1 (centres undefined)	yes (1)
Cc1csc(-c2nnc(Nc3ccc(Oc4ncccc4-c4ccnc(N)n4)cc3)c3ccccc23)c1	no (0)

Hey, what did the test say about `CCOC(=O)N1c2ccc(C(F)(F)F)cc2[C@@H](N(Cc2cc(C(F)(F)F)cc(C(F)(F)F)c2)C(=O)OC)C[C@H]1CC` ? no (0)
